- method summary: NCI Yeast Anticancer Drug Screen. Data for the bub3 strain (AID 167)
- study conditions: S. cerevisiae bub3 mutant strain, at 50.0 µM, hits give high values
This is part of a sample that, as a whole, favours compounds with a hit. Of some 79,000 tested, about 15% had one in any assay.
attribute measured: growth inhibition (%)
One number for each entry, in %.

Some compounds with known growth inhibition results, for comparison:
> print(dat)
                                   compound  endpoint.value
1                Oc1c(O)c(Br)c(Br)c(Br)c1Br            91.8
2  CC(C)=CC(=O)N(C)C1C2CN3CCC(O2)C13 (stereo not drawn)            29.9
3                 CCOP(=S)(OCC)OP(=O)(CC)CC             9.2
4  CCOP(=S)(OCC)SCc1c(C)c(C)c(CSP(=S)(OCC)OCC)c(C)c1C           -0.65
5  Cc1cc2[nH]c3c(C#N)c(OC(=O)N(C)C)c(C)c(=O)n3c2cc1C            27.9
6  COC(=O)C1(C(=O)OC)Cc2ccc(C)cc2C2=C1C(=O)c1ccccc1C2=O            -3.4
7         CCN(CC)CC(=O)c1cc2ccccc2c2ccccc12            99.1
8                  CCn1/c(=N\N=O)sc2ccccc21           -35.3

Return reported growth inhibition values for all items listed beneath this line.
1. CC(C)CC1N=C(N(C)N=O)OP1(=O)NNc1ncccn1 (stereo not drawn)
2. CC1(C)OP(=O)(O)C=C1[Se]c1ccccc1
3. COc1cc(/C=C/c2ccc(OC)c(O)c2)cc(OC)c1

1. 13.8
2. -3.2
3. 98.2

Would you mind giving growth inhibition for every compound in the list below?
1. CC1=CC2OC3CC(OC(=O)/C=C/C=C/C(OCCC4=CC(=O)OC4)C(C)O)C(C)(C2(CO)CC1)C31CO1 (stereo not drawn)
2. COc1cc2c(cc1OC)[N+]1(C)CCC3OCCC4C[N+]5(C)CCC26C5CC4C3C61 (stereo not drawn)
3. CCC[CH2][Sn]([CH2]CCC)([O]C(=O)CCC(C)=O)[O]C(=O)CCC(C)=O
4. CCCCCCCCCCCC[C@@H](O)[C@H]1CC[C@H]([C@H](O)CCCC[C@H](O)CCCCC[C@@H](O)CC2=C[C@H](C)OC2=O)O1
5. C#CCC1(OC(N)=O)CCCCC1
6. CCCN1CCC2(CC1)COCc1ccccc12
7. O=C(O)C(CSC(c1ccccc1)c1ccccc1)N1C(=O)c2ccccc2C1=O (stereo not drawn)

8.5
-6.6
88.4
-1.65
3.65
15.1
29.1

Hey, can you go through the list below and give me growth inhibition for every item?
1. CNC1(c2ccccc2)CC1
2. O=C(COc1ccc(Cl)c(Cl)c1)Nc1ccc[n+](Cc2c(Cl)cccc2S(=O)(=O)F)c1

1. 15.2
2. -1.5

I'm hoping you can list growth inhibition for every compound here, please.
1. CC(C)c1ccccc1OP(=S)(S)Oc1ccccc1C(C)C
2. COc1ccc(C(N)Cc2ccccc2)cc1 (stereo not drawn)
3. CN1C(=O)NC(C)(c2cccc(N(CCCl)CCCl)c2)C1=O (stereo not drawn)

37
3.5
-13.9

----------
- method summary: NCI Yeast Anticancer Drug Screen. Data for the mec2-1 strain (AID 157)
- study conditions: S. cerevisiae mec2-1 strain, at 50.0 µM
The panel holds about 79,000 compounds, 15% with a hit somewhere; the sample as a whole holds those more often. The source made the active and inactive calls. No stated cut-off is given here; in the data, active means growth inhibition above about 70%; inactive means the rest.
Entry note: the call must match one of 1 for active, -1 for inactive

> print(dat)
                                   compound  answer.label
1  CN1CC=C(OP(=O)(NCc2ccccc2)N(CCCl)CCCl)CC1 (stereo unspecified)            -1
2  CC(=O)Nc1ccc(C(=O)O)cc1 (tested in a mixture with another compound)            -1
3                            Sc1ccccc1.[Ag]             1
4  CC(Br)C(=O)C(CCN(C)C)(c1ccccc1)c1ccc(Br)s1 (stereo unspecified)            -1
5       Cc1ccccc1-n1c(CCl)nc2ccc(Br)cc2c1=O            -1

Next, consider the following compound.
What call does the record list for CC1CCCN(C(c2ccccc2)C(O)c2ccccc2)C1 (stereo unspecified) ?
-1

----------
- method summary: NCI Yeast Anticancer Drug Screen. Data for the mec2-1 strain (AID 157)
- study conditions: S. cerevisiae mec2-1 strain, at 5.0 µM (retest, dose inferred, filed as 0.5)
The panel holds about 79,000 compounds, 15% with a hit somewhere; the sample as a whole holds those more often. Active and inactive are the calls of the source. No stated cut-off is given here; in the data, active means growth inhibition above about 70%; inactive means the rest.
Mark one answer only. Choices: label 1 = active, label 0 = inactive

Solved cases below.
molecule	answer label
CCCCCc1cc(OC(=O)CCCN(CC)CC)c2c(c1)OC(C)(C)[C@@H]1CCC(C)=C[C@@H]21	label 0
CC(=O)[O][Pb]([O]C(C)=O)([O]C(C)=O)[c]1ccccc1	label 1
OC(CN(CCCl)CCCl)C(O)C(O)C(O)CN(CCCl)CCCl (stereo not given)	label 0
O=[N+]([O-])c1cc([N+](=O)[O-])c(Cl)s1	label 1
CCC(=O)C(CCN1CCC(N2C(=O)C(CCC#N)c3ccccc32)CC1)(c1ccccc1)c1ccccc1 (stereo not given)	label 0
CC(=O)OC1CC[C@@]2(C)C(=CC[C@@H]3[C@@H]2CC[C@]2(C)C(OC(C)=O)[C@H](n4ccnc4)C[C@@H]32)C1 (stereo not given in full)	label 0
CN(C=O)C(=S)[S][Sb]([S]C(=S)N(C)C=O)[S]c1nc2ccc(N=Nc3ccc(NS(=O)(=O)c4ccc(NC(=O)C(N5CC5)(N5CC5)N5CC5)cc4)cc3)cc2s1	label 0
CCC[CH2][Sn]1([CH2]CCC)[O]C(=O)CN=Cc2ccccc2[O]1	label 1

Write down the call the test reported for this molecule. Item: C1OCC2[CH2][Hg][S][Hg][CH2]C1O2
label 0

Write down the call the test reported for this molecule. Item: CCCCCN1C(=O)C2C(C1=O)C1(Cl)C(Cl)=C(Cl)C2(Cl)C1(Cl)Cl (stereo not given)
label 0

Record request — test call for Clc1ccc(Cl)c(Cl)c1
label 0

----------
For each of the molecules below, state its growth inhibition.
- method summary: NCI Yeast Anticancer Drug Screen. Data for the cln2 rad14 strain (AID 165);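 also: 0% = growth equal to vehicle treated cultures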
- study conditions: S. cerevisiae cln2 rad14 strain, at 50.0 µM (retest, dose inferred, filed as 5.0), hits give high values
The panel holds about 79,000 compounds, 15% with a hit somewhere; the sample as a whole holds those more often. Calls of active or inactive are those of the source. Cut-off read from the data, not from the text of the source: active = growth inhibition above about 70%; inactive = the rest.

Worked cases, growth inhibition given:
> print(dat)
                                    molecule  attribute.measured   endpoint.value
 1  [Cl][Pt+2][Cl].[NH-]c1ccc([N+](=O)[O-])cc1[NH-]   growth inhibition     94% (active)
 2                   Nc1cc2[nH]cnc2c([Se])n1   growth inhibition  -33% (inactive)
 3              CN1C(=O)C2(C)SSC1(C)C(=O)N2C   growth inhibition     85% (active)
 4  CN=C(N)N/N=C(\C)c1ccc2sc3ccc(/C(C)=N/NC(N)=NC)cc3c2c1   growth inhibition    7% (inactive)
 5                Nc1ccc(Br)cc1C(=O)c1ccccc1   growth inhibition     95% (active)
 6       CCOP(=O)(OCC)/C(C#N)=C/c1ccc(Br)cc1   growth inhibition     96% (active)
 7  O=C(O)CN1CCN(CC(=O)O)CC(=O)[O][Hg][O]C(=O)C1   growth inhibition     99% (active)
 8  CC(=O)O.[RuH].c1ccc([PH+](c2ccccc2)c2ccccc2)cc1.c1ccc([PH+](c2ccccc2)c2ccccc2)cc1.c1ccc([PH+](c2ccccc2)c2ccccc2)cc1   growth inhibition     91% (active)
 9  C[C@H]1CC[C@@]2(NC1)O[C@H]1C[C@H]3[C@@H]4CC[C@H]5C[C@@H](O)CC[C@]5(C)[C@H]4CC[C@]3(C)[C@H]1[C@@H]2C   growth inhibition     98% (active)
10  CCC[CH2][Sn]([CH2]CCC)[S]CC(N)C(=O)O (stereo not given)   growth inhibition     98% (active)

Batch request: growth inhibition for each of the following molecules.
1. O=C1C(=O)C(Br)(Br)C(Br)=C1Br
2. O=C(N/N=C/c1cc(Br)cc(Br)c1[O-])c1ccccc1O.O=C(N/N=C/c1cc(Br)cc(Br)c1[O-])c1ccccc1O.[Zn+2]
3. C[CH2][Pb]([CH2]C)([CH2]C)[O]C(=O)COc1ccc(Cl)cc1Cl
4. Cc1[cH-]c(=O)n(-c2ccccc2)n1.[Au+].[Au].c1ccc([PH+](c2ccccc2)c2ccccc2)cc1.c1ccc([PH+](c2ccccc2)c2ccccc2)cc1

["-2% (inactive)", "96% (active)", "91% (active)", "65% (inactive)"]
